experiment: total protein half-life in vivo (active degradation + dilution); higher = more stable protein; details: E. coli NCM3722 delta-clpP; growth: N-lim chemostat; doubling time 6 h

>  <Sequence Input>
MKRQKRDRLERAHQRGYQAGIAGRSKEMCPYQTLNQRSQWLGGWREAMADRVVMA [P0AFW2]

>  <Scale Unit>
h

>  <total protein half-life in vivo>
0.588

$$$$
>  <Sequence Input>
MDMDLNNRLTEDETLEQAYDIFLELAADNLDPADVLLFNLQFEERGGAELFDPAEDWQEHVDFDLNPDFFAEVVIGLADSEDGEINDVFARILLCREKDHKLCHIIWRE [P0A8L7]

>  <Scale Unit>
h

>  <total protein half-life in vivo>
4.35

$$$$
>  <Sequence Input>
MKKVLLIILLLLVVLGIAAGVGVWKVRHLADSKLLIKEETIFTLKPGTGRLALGEQLYADKIINRPRVFQWLLRIEPDLSHFKAGTYRFTPQMTVREMLKLLESGKEAQFPLRLVEGMRLSDYLKQLREAPYIKHTLSDDKYATVAQALELENPEWIEGWFWPDTWMYTANTTDVALLKRAHKKMVKAVDSAWEGRADGLPYKDKNQLVTMASIIEKETAVASERDKVASVFINRLRIGMRLQTDPTVIYGMGERYNGKLSRADLETPTAYNTYTITGLPPGAIATPGADSLKAAAHPAKTPYLYFVADGKGGHTFNTNLASHNKSVQDYLKVLKEKNAQ

>  <Scale Unit>
h

>  <total protein half-life in vivo>
6.52

$$$$
>  <Sequence Input>
MSDDNSHSSDTISNKKGFFSLLLSQLFHGEPKNRDELLALIRDSGQNDLIDEDTRDMLEGVMDIADQRVRDIMIPRSQMITLKRNQTLDECLDVIIESAHSRFPVISEDKDHIEGILMAKDLLPFMRSDAEAFSMDKVLRQAVVVPESKRVDRMLKEFRSQRYHMAIVIDEFGGVSGLVTIEDILELIVGEIEDEYDEEDDIDFRQLSRHTWTVRALASIEDFNEAFGTHFSDEEVDTIGGLVMQAFGHLPARGETIDIDGYQFKVAMADSRRIIQVHVKIPDDSPQPKLDE [P0AE78]

>  <Scale Unit>
h

>  <total protein half-life in vivo>
4.83

$$$$
>  <Sequence Input>
MPELPEVETSRRGIEPHLVGATILHAVVRNGRLRWPVSEEIYRLSDQPVLSVQRRAKYLLLELPEGWIIIHLGMSGSLRILPEELPPEKHDHVDLVMSNGKVLRYTDPRRFGAWLWTKELEGHNVLTHLGPEPLSDDFNGEYLHQKCAKKKTAIKPWLMDNKLVVGVGNIYASESLFAAGIHPDRLASSLSLAECELLARVIKAVLLRSIEQGGTTLKDFLQSDGKPGYFAQELQVYGRKGEPCRVCGTPIVATKHAQRATFYCRQCQK

>  <Scale Unit>
h

>  <total protein half-life in vivo>
6.39

$$$$
>  <Sequence Input>
MMNPLIIKLGGVLLDSEEALERLFSALVNYRESHQRPLVIVHGGGCVVDELMKGLNLPVKKKNGLRVTPADQIDIITGALAGTANKTLLAWAKKHQIAAVGLFLGDGDSVKVTQLDEELGHVGLAQPGSPKLINSLLENGYLPVVSSIGVTDEGQLMNVNADQAATALAATLGADLILLSDVSGILDGKGQRIAEMTAAKAEQLIEQGIITDGMIVKVNAALDAARTLGRPVDIASWRHAEQLPALFNGMPMGTRILA [P0A6C8]

>  <Scale Unit>
h

>  <total protein half-life in vivo>
3.77

$$$$
